Values were extracted from patent US11230526B1.

For each of the compounds below, state its EC50.
study-target: human GPR40 (Homo sapiens, UniProt O14842)
Sequence (O14842 whole entry): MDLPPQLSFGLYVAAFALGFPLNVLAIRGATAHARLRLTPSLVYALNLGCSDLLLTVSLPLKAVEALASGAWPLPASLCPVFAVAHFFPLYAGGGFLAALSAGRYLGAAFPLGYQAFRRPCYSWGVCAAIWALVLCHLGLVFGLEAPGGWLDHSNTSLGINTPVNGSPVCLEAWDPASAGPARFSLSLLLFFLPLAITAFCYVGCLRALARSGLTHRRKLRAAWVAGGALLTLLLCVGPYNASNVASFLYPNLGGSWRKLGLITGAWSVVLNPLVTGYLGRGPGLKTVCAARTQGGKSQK
run-description: GPR40 calcium flux assay, human GPR40
recorded-conditions: HEK293 cells stably expressing GPR40; table does not say human or rat

Consider the reported EC50 for these compounds:
- CC(=O)Nc1ccc(C2=C(COc3ccc(CCC(=O)O)c(C)c3C)CCCC2)cc1: > 5 µM
- O=C(O)CCc1cc(F)c(OCC2=C(c3ccc(Cl)cc3)CCC2)c(F)c1: > 5 µM
- Cc1c(CCC(=O)O)ccc(OCC2=C(c3ccc(Cl)cc3)C(C(C)C)CC2)c1C (centres unmarked): > 5 µM
- Cc1ccc(C2=C(COc3ccc(CCC(=O)O)cc3C)CCC2)cn1: > 5 µM
- O=C(O)CCc1cc(F)c(OCC2=C(C3CCCC3)CCC2)cc1C(F)(F)F: > 10 µM
- O=C(O)CCc1ccc(OCC2=C(C3CCCC3)CCCC2)cc1Cl: > 10 µM

# batch size: 2; output EC50 per entry
1. O=C(O)CCc1c(F)cc(OCC2=C(C3CCCC3)CCC2)cc1C(F)(F)F
2. CCc1ccc(C2=C(COc3cc(C)c(CCC(=O)O)cc3F)CCC2)cc1

Output:
["> 10 µM", "> 5 µM"]

----------
study-target: human GPR40 (Homo sapiens, UniProt O14842)
run-description: GPR40 calcium flux assay, human GPR40
recorded-conditions: HEK293 cells stably expressing GPR40; table does not say human or rat
property-name: EC50

• Cc1ccc(C2=C(COc3ccc(CCC(=O)O)c(F)c3F)CCC2)cn1 = > 5 µM
• CCc1cc(CCC(=O)O)c(C(F)(F)F)cc1OCC1=C(c2ccc(Cl)cc2)CCC1 = > 5 µM
• Cc1ccc(C2=C(COc3ccc(CCC(=O)O)c(C)c3C)CCCC2)cc1F = > 5 µM
• Cc1c(CCC(=O)O)ccc(OCC2=C(c3ccc(C#N)cc3)CCCC2)c1C = > 5 µM
• COc1cc(F)cc(C2=C(COc3ccc(CCC(=O)O)c(C)c3C)CCC2)c1 = > 5 µM

# batch size: 3; output EC50 per entry
1. Cc1c(CCC(=O)O)ccc(OCC2=C(C3CCC(F)(F)CC3)CCC2)c1C
2. O=C(O)CCc1ccc(OCC2=C(c3ccc(Cl)cc3)CCC2)c(F)c1
3. COc1ncc(C2=C(COc3c(F)cc(CCC(=O)O)cc3F)CCC2)cc1F

Output:
> 10 µM
> 10 µM
> 5 µM

----------
study-target: human GPR40 (Homo sapiens, UniProt O14842)
run-description: GPR40 calcium flux assay, human GPR40
recorded-conditions: HEK293 cells stably expressing GPR40; table does not say human or rat
property-name: EC50

- CCc1ccc(C2=C(COc3ccc(CCC(=O)O)c(C)c3C)CCC2)cc1: > 5 µM
- CCC1CCC(c2ccc(Cl)cc2)=C(COc2ccc(CCC(=O)O)c(C)c2C)C1 (stereo not drawn): > 5 µM
- CC(Cc1ccc(OCC2=C(c3ccc(Cl)cc3)CCC2)c(F)c1)C(=O)O (stereo not drawn): > 5 µM

# batch size: 3; output EC50 per entry
1. COC1CCC(c2ccc(C)cc2)=C(COc2ccc(CCC(=O)O)cc2)C1 (stereo not drawn)
2. O=C(O)CCc1ccc(OCC2=C(c3ccccc3Cl)CCC2)cc1Cl
3. CCCC1=C(COc2ccc(CCC(=O)O)c(C(F)(F)F)c2)CCC1

Output:
1. 4.41 µM
2. 0.234 µM
3. 0.051 µM

# batch size: 5; output EC50 per entry
1. Cc1c(CCC(=O)O)ccc(OCC2=C(c3ccc(Cl)cc3)CCC2)c1C
2. CCc1ccc(C2=C(COc3ccc(CCC(=O)O)c(F)c3F)CCC2)cc1
3. Cc1c(CCC(=O)O)ccc(OCC2=C(c3ccc(F)cc3F)CC(F)(F)C2)c1C
4. Cc1ccc(C2=C(COc3cc(C)c(CCC(=O)O)cc3F)CCC2)cc1
5. Cc1ccc(C2=C(COc3c(F)cc(CCC(=O)O)cc3F)CCC2)cc1N

Output:
> 5 µM
> 5 µM
> 5 µM
4.78 µM
> 5 µM

# batch size: 8; output EC50 per entry
1. Cc1cc(CC(C)C(=O)O)ccc1OCC1=C(c2ccc(Cl)cc2)CCC1 (stereo not drawn)
2. Cc1c(CCC(=O)O)ccc(OCC2=C(c3ccc(C#N)s3)CCC(F)(F)C2)c1C
3. O=C(O)CCc1ccc(OCC2=C(c3ccc(Cl)c(F)c3)CCC2)cc1C(F)(F)F
4. Cc1c(CCC(=O)O)ccc(OCC2=C(c3ccc(Cl)cc3)CCC2=O)c1C
5. Cc1c(CCC(=O)O)ccc(OCC2=C(c3ccc(Cl)cc3)CCC2(O)C(F)(F)F)c1C (stereo not drawn)
6. Cc1ccc(F)c(C2=C(COc3ccc(CCC(=O)O)c(Cl)c3)CCC2)c1
7. Cc1c(CCC(=O)O)ccc(OCC2=C(c3ncccn3)CCCC2)c1C
8. CC(C)C1=C(COc2ccc(CCC(=O)O)cc2)CCCC1

Output:
1. > 5 µM
2. > 5 µM
3. 0.101 µM
4. > 5 µM
5. > 5 µM
6. 1.1 µM
7. > 5 µM
8. 2.42 µM

# batch size: 6; output EC50 per entry
1. CC(C)CC1=C(COc2ccc(CCC(=O)O)c(Cl)c2)CCCC1
2. Cc1ccc(C2=C(COc3ccc(CCC(=O)O)c(Cl)c3)CCC2)cc1F
3. O=C(O)CCc1ccc(OCC2=C(c3ccc(Cl)cc3)CCCC2)cc1
4. O=C(O)CCc1cc(F)c(OCC2=C(C3CCC(F)(F)CC3)CCC2)c(F)c1
5. Cc1cc(OCC2=C(c3ccc(Cl)cc3)C(C)CC2)c(F)cc1CCC(=O)O (stereo not drawn)
6. O=C(O)CCc1ccc(OCC2=C(c3ccc(F)cc3)CC(F)(F)C2)cc1Cl

Output:
0.202 µM
1.07 µM
> 5 µM
> 10 µM
0.746 µM
0.311 µM

# batch size: 6; output EC50 per entry
1. C=Cc1cc(OCC2=C(C3CCCC3)CCC2)ccc1CCC(=O)O
2. O=C(O)CCc1ccc(OCC2=C(c3ccc(Cl)cc3)CCC2)c(Br)c1
3. O=C(O)CCc1cc(Cl)c(OCC2=C(c3ccc(F)cc3)CC(F)(F)C2)c(Cl)c1
4. Cc1ccc(C2=C(COc3ccc(CCC(=O)O)cc3C)CCCC2)cn1
5. O=C(O)CCc1ccc(OCC2=C(Cc3ccc(F)cc3)CCC2)cc1Cl
6. Cc1c(CCC(=O)O)ccc(OCC2=C(c3ccc(S(C)(=O)=O)cc3)CCC2)c1C

Output:
0.048 µM
> 5 µM
> 5 µM
> 5 µM
0.06 µM
> 10 µM

# batch size: 2; output EC50 per entry
1. Cc1c(CCC(=O)O)ccc(OCC2=C(c3ccc(F)cc3)CC(F)C2)c1C (stereo not drawn)
2. O=C(O)CCc1cc(F)c(OCC2=C(c3ccc(F)c(F)c3)CCC(F)(F)C2)c(F)c1

Output:
["> 5 µM", "> 5 µM"]

----------
study-target: Human GPR120 short form (Homo sapiens, UniProt Q5NUL3)
Construct: expressed in transfected cells
Sequence (Q5NUL3 whole entry): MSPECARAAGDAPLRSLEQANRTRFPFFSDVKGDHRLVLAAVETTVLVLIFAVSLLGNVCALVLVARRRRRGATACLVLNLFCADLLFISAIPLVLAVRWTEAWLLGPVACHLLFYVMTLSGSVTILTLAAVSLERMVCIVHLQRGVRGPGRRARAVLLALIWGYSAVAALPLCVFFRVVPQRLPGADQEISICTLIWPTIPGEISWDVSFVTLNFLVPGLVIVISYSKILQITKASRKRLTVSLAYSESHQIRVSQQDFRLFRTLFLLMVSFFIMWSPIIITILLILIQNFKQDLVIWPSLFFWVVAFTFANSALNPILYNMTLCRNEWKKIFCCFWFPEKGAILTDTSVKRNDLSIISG
run-description: Human GPR120 calcium flux assay, Procedure Calcium B (4200 cells/well)
Format: cell-based
Assign labels as follows, please: Y for EC50 below 300 nM; N for EC50 equal to or exceeding 300 nM.

Please review the following examples before continuing.
• O=C(O)CCc1c(F)cc(OCC2=C(C3CCCC3)CCC2)cc1C(F)(F)F = N
• Cc1ccc(C2=C(COc3ccc(CCC(=O)O)c(C)c3C)CCC2)cc1F = Y

Task: Strictly below 300 nM: is that where EC50 of O=C(O)CCc1cc(F)c(OCC2=C(c3cccs3)CCC(F)(F)C2)c(F)c1 sits?
Output: Y

Task: Strictly below 300 nM: is that where EC50 of O=C(O)CCc1ccc(OCC2=C(c3ccc(Cl)cc3)CC(F)(F)C2)cc1C(F)(F)F sits?
Output: N

Task: Strictly below 300 nM: is that where EC50 of O=C(O)CCc1cc(F)c(OCC2=C(Cc3ccccc3)CCC2)c(F)c1 sits?
Output: N

Task: Strictly below 300 nM: is that where EC50 of Cc1c(CCC(=O)O)ccc(OCC2=C(c3ccc(C(F)(F)F)cc3)CCCC2)c1C sits?
Output: N

Task: Strictly below 300 nM: is that where EC50 of O=C(O)CCc1ccc(OCC2=C(C3CCCC3)CCC2)cc1 sits?
Output: Y

Task: Strictly below 300 nM: is that where EC50 of O=C(O)CCc1ccc(OCC2=C(C3CCCC3)CCC2)cc1C1CC1 sits?
Output: N

Task: Strictly below 300 nM: is that where EC50 of O=C(O)CCc1ccc(OCC2=C(c3ccc(Cl)cc3)CC(F)(F)C2)cc1Cl sits?
Output: Y

Task: Strictly below 300 nM: is that where EC50 of Cc1cc(OCC2=C(c3ccc(Br)cc3)CCC2)c(F)cc1CCC(=O)O sits?
Output: Y

Task: Strictly below 300 nM: is that where EC50 of O=C(O)CCc1ccc(OCC2=C(c3ccccc3)CCC2)cc1C(F)(F)F sits?
Output: N

Task: Strictly below 300 nM: is that where EC50 of COc1cc(C)ccc1C1=C(COc2ccc(CCC(=O)O)cc2)CCC1 sits?
Output: N
